Quick reference for pIC50 among some compounds
- target: full-length beta-Catenin (Uniprot ID P35222) (Homo sapiens)
- Construct: 10 nM full-length beta-Catenin (Uniprot ID P35222)
- Sequence (P35222 1-781): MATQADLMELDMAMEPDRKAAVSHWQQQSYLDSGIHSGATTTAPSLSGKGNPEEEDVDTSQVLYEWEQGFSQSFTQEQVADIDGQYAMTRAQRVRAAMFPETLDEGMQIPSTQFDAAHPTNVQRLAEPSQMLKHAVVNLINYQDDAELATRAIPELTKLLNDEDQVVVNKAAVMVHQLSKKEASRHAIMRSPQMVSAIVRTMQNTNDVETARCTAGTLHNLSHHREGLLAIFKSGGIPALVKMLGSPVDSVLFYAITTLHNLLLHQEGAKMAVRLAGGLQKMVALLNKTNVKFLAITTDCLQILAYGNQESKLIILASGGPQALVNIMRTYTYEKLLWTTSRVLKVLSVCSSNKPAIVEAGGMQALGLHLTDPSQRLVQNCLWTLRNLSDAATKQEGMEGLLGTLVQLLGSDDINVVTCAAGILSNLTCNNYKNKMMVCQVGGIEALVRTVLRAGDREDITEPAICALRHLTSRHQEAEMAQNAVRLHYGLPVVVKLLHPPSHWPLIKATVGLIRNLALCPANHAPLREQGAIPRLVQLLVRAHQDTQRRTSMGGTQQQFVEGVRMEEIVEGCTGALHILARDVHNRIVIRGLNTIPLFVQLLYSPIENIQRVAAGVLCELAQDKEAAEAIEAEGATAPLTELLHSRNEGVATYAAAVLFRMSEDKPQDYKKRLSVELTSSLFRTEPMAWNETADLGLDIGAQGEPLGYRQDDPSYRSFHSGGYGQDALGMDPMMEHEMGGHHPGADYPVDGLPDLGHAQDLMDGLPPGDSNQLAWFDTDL
- method-notes: Fluorescence polarization IC50 (beta-catenin / 5FAM-TCF4 10-53 competition)
- Format: binding
- measurement-parameters: read-out: beta-Catenin FP IC50
pIC50: −log10 of the molar value.
measured-property: pIC50

{"compound": "CC(=O)N1CCC[C@]12CC=CCCCC1(CCCC=CCCCOC(=O)N3CC[C@@](C(=O)N[C@@H](Cc4ccccc4Cl)C(=O)N[C@@H](Cc4csc5ccccc45)C(=O)N[C@@H](CO)C(N)=O)(C3)NC(=O)[C@H](CO)NC(=O)[C@H](Cc3ccccc3)NC(=O)[C@H](C)NC(=O)[C@H](C)NC(=O)[C@H](CC(N)=O)NC(=O)[C@H](CC(=O)O)NC1=O)NC(=O)[C@H](CC(C)(C)C)NC(=O)[C@H](CC(=O)O)NC2=O (some centres unmarked)", "numeric-result": 7.28}
{"compound": "CC(=O)N1CCC[C@]12CC=CCCCC1(CCCC=CCCCOC(=O)N3CC[C@@](C(=O)N[C@@H](Cc4ccccc4Cl)C(=O)N[C@@H](Cc4csc5ccccc45)C(=O)N[C@@H](CCC(N)=O)C(N)=O)(C3)NC(=O)[C@H](CC(C)C)NC(=O)[C@H](Cc3cccc(C(F)(F)F)c3)NC(=O)[C@H](C)NC(=O)[C@H](C)NC(=O)[C@H](CC(=O)O)NC(=O)[C@H](CC(=O)O)NC1=O)NC(=O)[C@H](CC(C)(C)C)NC(=O)[C@H](CC(=O)O)NC2=O (some centres unmarked)", "numeric-result": 7.47}
{"compound": "COc1cccc(C[C@@H]2NC(=O)[C@H](C)NC(=O)[C@H](C)NC(=O)[C@H](CC(=O)O)NC(=O)[C@H](CC(=O)O)NC(=O)C3(CCCC=CCCCOC(=O)N4CC[C@@](C(=O)N[C@@H](Cc5ccccc5Cl)C(=O)N[C@@H](Cc5csc6ccccc56)C(=O)N[C@@H](CCC(N)=O)C(N)=O)(C4)NC(=O)[C@H](CO)NC2=O)CCCC=CC[C@]2(CCCN2C(C)=O)C(=O)N[C@@H](CC(=O)O)C(=O)N[C@@H](CC2CCCCC2)C(=O)N3)c1 (some centres unmarked)", "numeric-result": 7.62}
{"compound": "CC(=O)N1CCC[C@]12CC=CCCCC1(CCCC=CCCCOC(=O)N3CC[C@@](C(=O)N[C@@H](Cc4ccsc4)C(=O)N[C@@H](Cc4csc5ccccc45)C(=O)N[C@@H](CO)C(N)=O)(C3)NC(=O)[C@H](CC(C)C)NC(=O)[C@H](Cc3ccccc3)NC(=O)[C@H](C)NC(=O)[C@H](C)NC(=O)[C@H](Cc3cccc(C(=O)O)c3)NC(=O)[C@H](CC(=O)O)NC1=O)NC(=O)[C@H](CC(C)(C)C)NC(=O)[C@H](CC(=O)O)NC2=O (some centres unmarked) [I-987]", "numeric-result": 6.95}
{"compound": "CC(=O)N1CCC[C@]12CC=CCCCC1(CCCC=CCCCOC(=O)N3CC[C@@](C(=O)N[C@@H](Cc4ccccc4Cl)C(=O)N[C@@H](Cc4csc5ccccc45)C(=O)N[C@@H](CCC(N)=O)C(N)=O)(C3)NC(=O)[C@H](CO)NC(=O)[C@H](Cc3ccccc3)NC(=O)[C@H](C)NC(=O)[C@H](C)NC(=O)[C@H](CC(=O)O)NC(=O)[C@H](CC(=O)O)NC1=O)NC(=O)[C@H](Cc1ccccc1)NC(=O)[C@H](CC(=O)O)NC2=O (some centres unmarked)", "numeric-result": 8.30}

###

- target: beta-catenin/TCF4 engagement (Homo sapiens, UniProt P35222)
- Construct: expressed in transfected cells; host or cells: HEK293
- method-notes: Nano-BRET target engagement assay (B-cat-Halo & TCF4-Luc in HEK293 cells)
- Type: cell-based
- measurement-parameters: absolute IC50; read-out: NanoBRET Abs IC50
pIC50: −log10 of the molar value.
Quick reference for pIC50 among some compounds

{"compound": "C#CC(=O)N1CCC[C@]12CC=CCCCC1(CCCC=CCCCOC(=O)N3CC[C@@](C(=O)N[C@@H](Cc4ccsc4)C(=O)N[C@@H](Cc4csc5ccccc45)C(=O)N[C@@H](Cc4c[nH]cn4)C(N)=O)(C3)NC(=O)[C@H](CCC(N)=O)NC(=O)[C@H](Cc3ccccc3)NC(=O)[C@H](C)NC(=O)[C@H](C)NC(=O)[C@H](CC(=O)O)NC(=O)[C@H](CC(=O)O)NC1=O)NC(=O)[C@H](CC(C)(C)C)NC(=O)[C@H](CC(=O)O)NC2=O (some centres unmarked)", "op": "<", "pIC50": 4.70}
{"compound": "CC(=O)N1CCC[C@]12CC=CCCCC1(CCCC=CCCCOC(=O)N3CC[C@@](C(=O)N[C@@H](Cc4ccsc4)C(=O)N[C@@H](Cc4csc5ccccc45)C(=O)N[C@@H](CCC(=O)N4CCC(N5CCN(C)CC5)CC4)C(N)=O)(C3)NC(=O)[C@H](CC(C)C)NC(=O)[C@H](Cc3ccccc3)NC(=O)[C@H](C)NC(=O)[C@H](C)NC(=O)[C@H](CN(CC(=O)O)CC(F)(F)F)NC(=O)[C@H](CC(=O)O)NC1=O)NC(=O)[C@H](CC(C)(C)C)NC(=O)[C@H](CC(=O)O)NC2=O (some centres unmarked) [I-1802]", "op": "=", "pIC50": 4.60}

###

- method-notes: CHI Log D procedure
- Assay type: physicochemical
- measurement-parameters: pH 7.4, CHI Log D
Tick Y if chromatographic logD is 2 or greater. Tick N if chromatographic logD is less than 2.

{"molecule": "CC(=O)N1CCC[C@]12CC=CCCCC1(CCCC=CCCCOC(=O)N3CC[C@@](C(=O)N[C@@H](Cc4ccsc4)C(=O)N[C@@H](Cc4csc5ccccc45)C(=O)N[C@@H](Cc4c[nH]cn4)C(N)=O)(C3)NC(=O)[C@H](CC(N)=O)NC(=O)[C@H](Cc3ccccc3)NC(=O)[C@H](C)NC(=O)[C@H](C)NC(=O)[C@H](CC(=O)O)NC(=O)[C@H](CC(=O)O)NC1=O)NC(=O)[C@H](CCC(C)C)NC(=O)[C@H](CC(=O)O)NC2=O (some centres unmarked)", "class-assignment": "Y"}
{"molecule": "CC(=O)N1CCC[C@]12CC=CCCCC1(CCCC=CCCCOC(=O)N3CC[C@@](C(=O)N[C@@H](Cc4ccccc4Cl)C(=O)N[C@@H](Cc4csc5ccccc45)C(=O)N[C@@H](CCC(N)=O)C(N)=O)(C3)NC(=O)[C@H](CC(C)C)NC(=O)[C@H](Cc3ccccc3)NC(=O)[C@H](C)NC(=O)[C@H](C)NC(=O)[C@H](CC(=O)O)NC(=O)[C@H](CC(=O)O)NC1=O)NC(=O)[C@H](CC(C)(C)C)NC(=O)[C@H](CC(=O)O)NC2=O (some centres unmarked)", "class-assignment": "N"}
{"molecule": "CC(=O)N1CCC[C@]12CC=CCCCC1(CCCC=CCCCOC(=O)N3CC[C@@](C(=O)N[C@@H](Cc4ccsc4)C(=O)N[C@@H](Cc4csc5ccccc45)C(=O)N[C@@H](Cc4c[nH]cn4)C(=O)N[C@H](C)C(N)=O)(C3)NC(=O)[C@H](CC(N)=O)NC(=O)[C@H](Cc3ccccc3)NC(=O)[C@H](C)NC(=O)[C@H](C)NC(=O)[C@H](CC(=O)O)NC(=O)[C@H](CC(=O)O)NC1=O)NC(=O)[C@H](CC(C)(C)C)NC(=O)[C@H](CC(=O)O)NC2=O (some centres unmarked)", "class-assignment": "Y"}
{"molecule": "COCCOCCOCCOCCOCCOCCOCCOCCC(=O)NCCCC[C@@H]1NC(=O)[C@H](C)NC(=O)[C@H](CC(=O)O)NC(=O)[C@H](CC(=O)O)NC(=O)C2(CCCC=CCCCOC(=O)N3CC[C@@](C(=O)N[C@@H](Cc4ccsc4)C(=O)N[C@@H](Cc4csc5ccccc45)C(=O)N[C@@H](CCC(N)=O)C(N)=O)(C3)NC(=O)[C@H](CC(N)=O)NC(=O)[C@H](Cc3ccccc3)NC1=O)CCCC=CC[C@]1(CCCN1C(C)=O)C(=O)N[C@@H](CC(=O)O)C(=O)N[C@@H](CC(C)(C)C)C(=O)N2 (some centres unmarked)", "class-assignment": "N"}
{"molecule": "CC(=O)N1CCC[C@]12CC=CCCCC1(CCCC=CCCCOC(=O)N3CC[C@@](C(=O)N[C@@H](Cc4cscn4)C(=O)N[C@@H](Cc4csc5ccccc45)C(=O)N[C@@H](CCC(N)=O)C(N)=O)(C3)NC(=O)[C@H](CC(N)=O)NC(=O)[C@H](Cc3ccccc3)NC(=O)[C@H](C)NC(=O)[C@H](C)NC(=O)[C@H](CC(=O)O)NC(=O)[C@H](CC(=O)O)NC1=O)NC(=O)[C@H](CC(C)(C)C)NC(=O)[C@H](CC(=O)O)NC2=O (some centres unmarked)", "class-assignment": "N"}

Reference for the values: patent US20240116985A1
